Tgt: Fibroblast growth factor 22 (Homo sapiens) (UniProt Q9HCT0)
Sequence (Q9HCT0 whole entry, looked up): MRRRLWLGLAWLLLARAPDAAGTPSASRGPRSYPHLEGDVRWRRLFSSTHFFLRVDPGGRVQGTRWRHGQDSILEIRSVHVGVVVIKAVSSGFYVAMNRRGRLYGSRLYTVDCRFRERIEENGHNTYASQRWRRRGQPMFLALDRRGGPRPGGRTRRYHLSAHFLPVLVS
Test protocol: binders of human FGF22 protein, primary screen, FGF22 synaptogenesis inhibitor project, biophysical, thermal shift, single point (AID 651658)
Condition set: recombinant FGF22 thermal shift, SYPRO orange fluorescence; at 9.99 µM; percent of sucrose octasulfate shift, DMSO zero
The campaign covered roughly 340,000 compounds. About 5,100 (1.5%) were called active.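 The calls were made as follows: active = mean Tm shift, scaled 0 neutral to 100 positive control, at about 1.3% or above, every replicate too (limit read from the data); inconclusive = no clear call, values can overlap the other calls; inactive = the rest.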 What follows is part of a selection rich in actives, with near analogues and random picks from the rest.
Possible outcomes: 1 (yes) = active, 0 (no) = inactive

Compound	Class name
CCC(=O)Nc1ccc2c(c1)C(=O)N(C)C[C@H](OC)[C@H](C)CN(C(=O)c1ccccc1F)[C@@H](C)CO2	0 (no)
Cn1cnc(CCNC(=O)C[C@H]2CC[C@@H]3[C@H](COC[C@H](O)CN3C(=O)C3CC3)O2)c1	0 (no)
S=C(Nc1ccc(Br)cc1Cl)N1CCC2(CC1)OCCO2	1 (yes)
CO[C@@H]1CN(C)C(=O)c2cc(NC(=O)C3CC3)ccc2OC[C@@H](C)N(Cc2nccs2)C[C@@H]1C	0 (no)
S=C(Nc1ccc(Cl)cc1Cl)N1CCCC1	0 (no)
CCCN1C[C@H](C)[C@@H](OC)CN(C)C(=O)c2cc(NS(=O)(=O)CC)ccc2OC[C@H]1C	0 (no)
C[C@H]1CN([C@@H](C)CO)C(=O)c2cc(NC(=O)Nc3ccccc3)ccc2O[C@H]1CN(C)C(=O)Nc1ccc(F)cc1	0 (no)
CC1CN(C(=S)Nc2ccc(Br)cc2Cl)CC(C)O1 (centres undefined)	0 (no)
O=C(C1CCCCC1)N1CC2(C1)[C@H](c1ccccc1)[C@@H](CO)N2CCC(F)(F)F	0 (no)
